Where do the numbers come from? From ChEMBL document CHEMBL3351629.

- target_desc: Nuclear receptor ROR-gamma (Mus musculus)
- experiment_notes: Activity at RoRc in mouse CD4+ T cells assessed as inhibition of IL-17 production at 10 uM
- Format: cell-based
- condition_label: T-cell
metric_name: inhibition (%)
Numeric answer only, unit % assumed.

Solved entries:
COc1ccc(C(C(=O)Nc2ccc(C(C)(C)C)cc2)N(C)C(=O)c2c[nH]c(=O)cn2)cc1 (stereo unspecified) = 95
COc1ccc(-c2c(-c3nc(CC(=O)NCC4CCOCC4)cs3)cnn2C(C)(C)C)cc1F = 91
COc1ccc(C(C(=O)Nc2ccc(C(C)(C)C)cc2)N(C)C(=O)c2ccc(=O)[nH]c2)cc1 (stereo unspecified) = 95
CCn1c2ccccc2c2cc(NC(=O)CC(C)(O)CCOc3ccc(C#N)c(Cl)c3)ccc21 (stereo unspecified) = 96

Give inhibition only, for CCn1c2ccccc2c2cc(NC(=O)CC(C)CC(=O)Nc3ccc(C#N)c(Cl)c3)ccc21 (stereo unspecified) , using Nuclear receptor ROR-gamma (Mus musculus) data.
96

Give inhibition only, for "CC(C)(C)n1ncc(-c2nc(CC(=O)NCC3CCOCC3)cs2)c1-c1cc2ccccc2s1" , using Nuclear receptor ROR-gamma (Mus musculus) data.
98
